- Organism: Homo sapiens
- Test summary: Selectivity index, ratio of IC50 for JAK2 (unknown origin) to IC50 for TYK2 (unknown origin)
Experimental endpoint: Ratio IC50

For orientation, consider the following solved cases.
# Input smiles, Recorded number
rows = [
    ("N#C[C@]1(C2CC2)C(=O)N2C[C@H]1COCC(=O)NCCCc1cccc(n1)Nc1cc2ccn1", 18),
    ("N#C[C@]1(C2CC2)C(=O)N2C[C@H]1COCCCCOCc1cccc(n1)Nc1cc2ccn1", 27),
    ("N#C[C@]1(C2CC2)C(=O)N2C[C@H]1COCC(=O)NCCc1cccc(n1)Nc1cc2ccn1", 7.8),
]

[A] N#C[C@]1(C2CC2)C(=O)N2C[C@H]1COC/C=C/COCc1cccc(n1)Nc1cc2ccn1
[B] N#C[C@]1(C2CC2)C(=O)N2C[C@H]1COCC(=O)NCc1cccc(n1)Nc1cc2ccn1
[C] N#C[C@]1(C2CC2)C(=O)N2C[C@H]1COC/C=C\COCc1cccc(n1)Nc1cc2ccn1
Sort the 3 compounds by Ratio IC50; largest first, smallest last. Enter labels, ranked according to the request.
C, A, B
(C: 25, A: 12, B: 7.7)
